Measured apparent KD of MS2 coat protein, listed per entry for reference.
system: MS2 coat protein; assay: apparent KD of MS2 coat protein; designed switch direction (-1 OFF switch, 1 ON switch): -1; higher = weaker reporter binding; conditions: Eterna round: R95; input ligand: FMN 200 uM
Output spec: scalar in nM, unitless text.

The cases that follow already have their apparent KD of MS2 coat protein on record.
AUGGACGCAGGAUAUACAUGAGGAUCACCCAUGUGAGGUUGGUAAGUAGGAAGUGAAGGUAGAAGGGCGAGAGU [JR_Exclu3_Sub098] (puzzle: Exclusion 3) :: 209
UAUGUAUACGUCAGGAUAUACGGUCCAGAUGGUAAGUAGAAGGGACAUGAGGAUCACCCAUGUAUAAUAAUAAU [AK 1] (puzzle: Brourd's mod of Exclusion 4) :: 20.2

API: the following record is the query input.
Query block: Return the recorded apparent KD of MS2 coat protein value; entry: AAAUACAAGCAAAGAUCCUACAUGAGGAUCACCCAUGUGUUCGUCUUAUAAAGUACUAUCACGAAAGUGAUAGUACA [Sensor 3, v1 - 18] (puzzle: Sensor v3, turn-off variant 1)
Result block: 309

----------
Measured apparent KD of MS2 coat protein, listed per entry for reference.
system: MS2 coat protein; test: apparent KD of MS2 coat protein; designed switch direction (-1 OFF switch, 1 ON switch): -1; higher = weaker reporter binding; details: Eterna round: R95; input ligand: microRNA oligo, concentration not stated
Output spec: scalar in nM, unitless text.

The cases that follow already have their apparent KD of MS2 coat protein on record.
GAAAAGGUAGGAUAUACGAAAAAAAAGGGUAGAAAAAAAAGACAUGAGGAUCACCCAUGUAGAAGGACCAAAAG [salish99_ex2_r3_061] (puzzle: Exclusion 2) :: 36.5
AAGUACCGUCACGAUAGUGAUGGUACAACUAGCAUGUAAACAUGAGGAUCACCCAUGUCCUCAAUUGCUCGUCUUAU [Sensor 3 - 69] (puzzle: Sensor v3, turn-off variant 2) :: 829

Query block: Return the recorded apparent KD of MS2 coat protein value; entry: AGUACUAACACGAAAGUGUUAGUACAAUAAGCUUGUGUAACAUGAGGAUCACCCAUGUCCUCAUAAGCUCGUCUUAU [salish99_TOv2_r3_043] (puzzle: Sensor v3, turn-off variant 2)
Result block: 38.3

Query block: Return the recorded apparent KD of MS2 coat protein value; entry: AGUAACUAUCACGAAAGUGAUAGUUACAAACAGGUGAAAACAUGAGGAUCACCCAUGUCCUCAUUUGCUCGUCUUAU [Sensor 3 - 8] (puzzle: Sensor v3, turn-off variant 2)
Result block: 64.5

Query block: Return the recorded apparent KD of MS2 coat protein value; entry: UUCUUACGAGGAUAUCGAUGGUGGAACAUGAGGAUCACCCAUGUAUGAGAUAUUGUAUUUCGAGAAGGCGUUCAGU [JR_E5_Sub058] (puzzle: Exclusion 5)
Result block: 51.6

----------
tested on: MS2 coat protein; experiment: apparent KD of MS2 coat protein; designed switch direction (-1 OFF switch, 1 ON switch): 1; higher = weaker reporter binding; settings: Eterna round: R95; input ligand: none
Outcome: label 1 for apparent KD of MS2 coat protein of at least 200 nM; label 0 for anything lower.

GGAGCCGGUACUGAGGAUAUUCAUUUUAAAACAUGAGGAUCACCCAUGUAGGCCAGAAGGCCUUGGGAGAAGGCAGACCAGCUCG [Atgexeedri - 6] (puzzle: Same State 2) :: label 1
AAAGCAAUGGUACAGGAUAUGUACGGUCGUACAUGAGGAUCACCCAUGUCGCUGGAAAGGUAGAUACAGAAGGGUGCCCAUGCGU [Riintile] (puzzle: Same State 2) :: label 1
AAGGGAUGAGCGUAGGAUAUAGGAGAAGUGACAUGAGGAUCACCCAUGUAAAAGGAGGGAUGAGACUAGAAGGACGAGGUAGGAG [JR_SS2_Sub059] (puzzle: Same State 2) :: label 0

Query block: Would you say UUUAGUUGCGGGCAGGAUAUGUAUUAAAAUACAUGAGGAUCACCCAUGUGGGACCGAAAAGGUCUACAGAAGGGCCAAUCGCGAC [Laonerce - 21] (puzzle: Same State 2) shows apparent KD of MS2 coat protein at minimum 200 nM?
Result block: label 0

Query block: Would you say AGUCCAGCCUAAGCUGGACAAAAGCAUGUACAUGAGGAUCACCCAUGUUCAUGUACAAGCUUUUUGCUCGUCUUAAG [Mat - hsa-mir-208a - Mod of JL - 65] (puzzle: Sensor for hsa-mir-208a) shows apparent KD of MS2 coat protein at minimum 200 nM?
Result block: label 1

----------
Measured apparent KD of MS2 coat protein, listed per entry for reference.
test system: MS2 coat protein; test: apparent KD of MS2 coat protein; designed switch direction (-1 OFF switch, 1 ON switch): 1; higher = weaker reporter binding; conditions: Eterna round: R95; input ligand: none
State the value, then name its unit.

The cases that follow already have their apparent KD of MS2 coat protein on record.
UGUCCAGCCUGAGCUGGACAAAAGCAUGUACAUGAGGAUCACCCAUGUUCAUGUACAAGCUUUUUGCUCGUCUUACC [salish99_208a_r3_083] (puzzle: Sensor for hsa-mir-208a) :: 610 nM
GGAGGAUGAGCGUAGGAUAUAGGAGGAGUGACAUGAGGAUCACCCAUGUGGUAGGAGGGAGGGUACUAGAAGGACGAGGAAGAGG [JR_SS2_Sub070] (puzzle: Same State 2) :: 74.5 nM

Query block: Return the recorded apparent KD of MS2 coat protein value; entry: AUUUAACAAGCUUUUUGCUCGUCUUAUAAACAUGAGGAUCACCCAUGUAAUAGCGUGAGAGUAAUUAUAUAAAUAAU [JMF 86] (puzzle: Sensor for hsa-mir-208a)
Result block: 15.4 nM

----------
tested on: MS2 coat protein; assay: apparent KD of MS2 coat protein; higher = weaker reporter binding; conditions: Eterna round: R107; input ligand: tryptophan 2.4 mM
Outcome: MET for apparent KD of MS2 coat protein of at least 0.1 µM; NOT MET for anything lower.

Answered examples (10):
CCUAUGCAGUCGGCCGCCACUGAACAUGAGGAUCACCCAUGUAACGGAAACGAAGAUCCUGAAAUCAGGACCGGGACUGUAUAGG [Ex Tryptophan B 3] :: MET
AUCUGUAUGUUUUCGUGUUUUAUUACAGAUACCAGACUAUACGUUGUCCCUUGGCAGCUGGAUGACAUGAGGAUCACCCAUGUUG [#27 Exclusion-TheophyllineA] :: NOT MET
UCGGGCAGAGCGGCCGCCACUGUUUGGCGUGCGGAUGACGGAACAUGAGGAUCACCCAUGUUGUUUAGGACCGGGCUUGCGGCGU [ipimullin] :: NOT MET
AUAACUGUAAUAAACCGCAGGCUAGUGGAAGGAGCGCGGAAUAACGCAGGUAGGUCGCCACAAACAUGAGGAUCACCCAUGUGGC [SSAA NP+V+V2 #6] :: NOT MET
CUCAUCCACGCGGCCGCCACUACUUGUAGGUGUGGGUGUGUUGUGUUACAUGAGGAUCACCCAUGUAGGACCGGGCGUGGAUGAG [Whale] :: MET
GGUGGGACUUGUGAUACCAGCCCAAUUCGAAUCGAAUUGCACAUGAGGAUCACCCAUGUCGGCCCUUGGCAGCAUGAGUAUUUAU [Ricerixe] :: MET
UUCUACAUGAGGAUCACCCAUGUAAACGAUACCAGACGAGUAUUAGUCCCUUGGCAGCGUAGAGUGUCGUUUAUAGUAGGAUACC [TheoA-ms2@5] :: NOT MET
GGAUAGGACAGAAGGAGCGACAUGAGGAUCACCCAUGUCUACUACGUCGAAAGACGCUCAUGUCAGGUAGGUCGCUGUCCUAUCG [#28 Exclusion - Arginine B] :: MET
GGUCUCGCGGGCGAUACCAGCUUGAUCGUACUGGCCUGGUACAUGAGGAUCACCCAUGUAAGCCCUUGGCAGCGCGCGCGAGACC [#1 Exclusion - Theophylline B Attempt #5 (HarryS)] :: NOT MET
UCGGGCAGAGCGGCCGCCACUGUUUGGCAUGCGGAUGACGGAACAUGAGGAUCACCCAUGUUGAUUAGGACCGGGCUUGCGGAGA [eefullin] :: NOT MET

# next sequence below
Query block: Would you say AAAAGAGGUGGAAGGAGCGGGAGACAUGAGGAUCACCCAUGUGAUAUGACAAGAGGAUCAGCCCAGGUAGGUCGCCAUGUCGAAA [pbbbmullin] shows apparent KD of MS2 coat protein at minimum 0.1 µM?
Result block: NOT MET

----------
Measured apparent KD of MS2 coat protein, listed per entry for reference.
tested on: MS2 coat protein; assay: apparent KD of MS2 coat protein; higher = weaker reporter binding; conditions: Eterna round: R107; input ligand: tryptophan 2.4 mM
Output spec: scalar in nM, unitless text.

The cases that follow already have their apparent KD of MS2 coat protein on record.
UAAUAAAUAAGUGAUACCAGCGAGAAAACAUGAGGAUCACCCAUGUUCGCCCAUGUUAAGCGCCCUUGGCAGCACAAAUAUAAAA [AstrosExyTheB#1] :: 33.6
UUUGCACAUGAGGAUCACCCAUGUACAGAUACCAGCCUCAUCUACGGCCCUUGGCAGCUGAGACAAUGGUGACGUGACGGGCUUU [Erqugere] :: 13.2
AACAGGGUCUGAAGGAGCGCGAUCACAUGAGGAUCACCCAUGUGAAAUGGUAGAUGAUACUCGCAGGUAGGUCGCAGUACUUGAC [Same State Arginine B GF 15] :: 28.4
CUAUUCUGUACGGCCGCCACUUCAACGUGUAAGCUGGUGGUCCACUACAUGAGGAUCACCCAUGUAAGGACCGGGUACGGCGCGG [theeternabot_exclusion_MS2_Trp_B_29] :: 40
UAAUACCAGGUCAACGUACCAGGUGAUCAACGAGGACCGGUACGGCCGCCACUCGAAACAUGAGGAUCACCCAUGUAAGACCUGG [|T'-M'-Trp-Ms2|_Design 2_ML2] :: 61.3
AGACAUGAGGAUCACCCAUGUAGCAUGGAUACCAGAUGUAGAUUUAUCCCUUGGCAGCUGUGGUAAAGUGAUGCAUUGCUCCUAG [Exclusion - Theophylline A (Freestyle 5)] :: 34

Query block: Return the recorded apparent KD of MS2 coat protein value; entry: UGAUACACGGGAAGGAGCGACAGGGAUAAGUCCGCACGGGCCGCACAUGAGGAUCACCCAUGUCAGGUAGGUCGCCCGUGGCGUG [Erxemarima]
Result block: 12.9

Query block: Return the recorded apparent KD of MS2 coat protein value; entry: UAUAUAGAUGGAAGUCAUAUAGAUGCAGAAGGAGCGUAGGAAACUACAGGUAGGUCGCUGAGGUACAUGAGGAUCACCCAUGUAG [SSArg A #18 Slice of Pi]
Result block: 24.2

Query block: Return the recorded apparent KD of MS2 coat protein value; entry: GUGGCGAUCACGGCCGCCACUGAGCAGGUCGAGCUUGACAUGAGGAUCACCCAUGUCUGACGAUACAGGACCGGGUGAUCUCCGC [Titiinanon]
Result block: 19.7

Query block: Return the recorded apparent KD of MS2 coat protein value; entry: GUUGGACUUUCGGCCGCCACUGAGAGAGUCGUGUGAACAUGAGGAUCACCCAUGUAAUAUAUAUACAGGACCGGGAGGGUUGUAA [4.N]
Result block: 11.3

Query block: Return the recorded apparent KD of MS2 coat protein value; entry: UUUUUUUUUUACAUGAGGAUCACCCAUGUUCGAGGACCGGUACGGCCGCCACUCGUUUUUGUUGUGGUAGGGUUAGGGUUAGGGU [Turkey Lurky]
Result block: 25.5

Query block: Return the recorded apparent KD of MS2 coat protein value; entry: AUAAGUAAUGUUACGUGUUUUAUUACAGAUACCAGACUAUACGUUGUCCCUUGGCAGCUGAAUUACAUGAGGAUCACCCAUGUUG [JR_ExcTheophyA_Sub004]
Result block: 15.1

Query block: Return the recorded apparent KD of MS2 coat protein value; entry: GGUCACCUAUCCUCAUUGGUGACCCUGGAAGGAGCGAGCGAGAGCUCAGGUAGGUCGCCAGAACAUGAGGAUCACCCAUGUAAUA [(A)''-(M)'-(A)'(Arg1)-(Arg2)-(M1)-(M2)_Design12]
Result block: 70.1

Query block: Return the recorded apparent KD of MS2 coat protein value; entry: GGUACAUGAGGAUCACCCAUGUGUCAUGAUACCAGACAUGAAAAUGUCCCUUGGCAGCAUGCCUGAUGGCCGCGUUUAGCGGCCG [Liskovec]
Result block: 16.2

Query block: Return the recorded apparent KD of MS2 coat protein value; entry: ACGUCACGUUUACUCGUGGUUUCGAUCGAUACCAGUAGCGAGAGUUACCCUUGGCAGCGACAUGAGGAUCACCCAUGUACGAAGA [XTheo A #25]
Result block: 12

Query block: Return the recorded apparent KD of MS2 coat protein value; entry: UGCUACAUGAGGAUCACCCAUGUGGGUGAUACCAGCAUUCGUUUAUGCCCUUGGCAGCGCAGCCGAACCAAUCAUUCGGCAGAAA [Artiusar]
Result block: 81

Query block: Return the recorded apparent KD of MS2 coat protein value; entry: AGCGACAUGCGUGAUACCAGCUACAUGAGGAUCACCCAUGUCAGCAGGGAACUGCUGUGUAGCCCUUGGCAGCACAGUGCAUGUC [Exclusion - Theophylline B (Freestyle 29)]
Result block: 10.2

Query block: Return the recorded apparent KD of MS2 coat protein value; entry: AGCAUACAUUCUGAUACCAGAGACAUGAGGAUCACCCAUGUCCGAUCGUCCUGCCUCAGACUCCCUUGGCAGCAGGAUGUGUGCU [Exclusion Theophylline B GF6]
Result block: 13.8

Query block: Return the recorded apparent KD of MS2 coat protein value; entry: UGUAUGUGAUCUGAUACCAGCCUCAUAGCUUGAGGAUCACCCAAGUGGAGCGGAAACGCUGGCCCUUGGCAGCAGAUCGCAUACU [TheoBS 1 #AlternativeMS2]
Result block: 516

Query block: Return the recorded apparent KD of MS2 coat protein value; entry: AACAUGAGGAUCACCCAUGUCUGAACUGAAGGAGCGCUAAAUAAGGCAGGUAGGUCGCGGAAUUUUAUAUAUAUAUAUAUAUAGG [9.D]
Result block: 25

Query block: Return the recorded apparent KD of MS2 coat protein value; entry: UACCCAUAGGGAAGGAGCGCGCUAACAUGAGGAUCACCCAUGUAAAGGGUUUCUGGCUUAGCGCAGGUAGGUCGCCCUAUGGGUA [#10 Exclusion - Arginine B]
Result block: 654

Query block: Return the recorded apparent KD of MS2 coat protein value; entry: CGAUAUAUACGAAGGAGCGACAUGAGGAUCACCCAUGUCUACCACGUCGAAAGACGCUCAUGUCAGGUAGGUCGCGUAUAUAUCG [Astros-Eli-mod9]
Result block: 117

Query block: Return the recorded apparent KD of MS2 coat protein value; entry: CCUCGACAUGAGGAUCACCCAUGUAGAGAUACCAGCCUGUGAGAUGGCCCUUGGCAGCUCAUAUAGGGUACAGGAGUCGUUUUGA [Qugetila]
Result block: 23.9
